- System: Yap1 mRNA
- assay-explanation: Dose-dependent inhibition of human Yap1 in A-431 cells (Example 8, 10,000 cells per well, RTS4814)
- Assay type: cell-based
- conditions-used: A-431 cells; Yap1 mRNA
pIC50: −log10 of the molar value. Strand notation (5' to 3'): a small letter for the sugar, then the base; units joined by * are phosphorothioate-linked, units joined directly phosphodiester-linked; [ ] holds rarer units or linkages, { } end groups; capitals alone tell only the bases. k = constrained ethyl (cEt); [5mC] = 5-methylcytosine; d = 2'-deoxy (DNA)
Reported pIC50 values are given for each entry in this list.

Some solved entries appear below for comparison.
1076084 (k[5mC]*kA*kT*d[5mC]*dA*dA*dT*dA*dG*dA*dG*dA*dG*kT*k[5mC]*kG; antisense) [compound 1076084] ... 7.00
1074485 (kT*kT*k[5mC]*dA*d[5mC]*dT*dA*dA*dT*dA*dT*dG*dG*kT*k[5mC]*kA; antisense) [compound 1074485] ... > 7.70
1075061 (antisense k[5mC]*k[5mC]*kT*dT*dA*dT*dA*d[5mC]*dT*dT*dT*dT*dA*kG*k[5mC]*k[5mC]) [compound 1075061] ... > 7.70
1075766 (kG*kG*kA*dG*dA*dA*d[5mC]*dA*d[5mC]*dA*dA*dG*dA*kG*kG*k[5mC]; antisense) [compound 1075766] ... > 7.70
1076023 (kA*kT*kA*dA*dT*dT*dA*dG*dA*dT*dG*d[5mC]*dT*kG*kA*k[5mC]; antisense) [compound 1076023] ... > 7.70

Here is another substance to look at.
Give its pIC50 value. Item: 1074454 (kT*kG*kT*dG*dA*d[5mC]*dT*dA*dA*dT*dG*dA*dT*kA*kG*k[5mC]; antisense) [compound 1074454]
> 7.70
